src = patent US10077243B2

EXPERIMENTAL SYSTEM: human mGluR5 (Homo sapiens, UniProt P41594)
Construct: expressed in transfected cells; host or cells: HEK293 cells stably expressing rat GLAST (EAAT1), stably transfected with pcDNAzeo3.1 carrying synthetic human mGluR5 DNA; zeocin-selected single clones
Sequence (P41594 21-1212): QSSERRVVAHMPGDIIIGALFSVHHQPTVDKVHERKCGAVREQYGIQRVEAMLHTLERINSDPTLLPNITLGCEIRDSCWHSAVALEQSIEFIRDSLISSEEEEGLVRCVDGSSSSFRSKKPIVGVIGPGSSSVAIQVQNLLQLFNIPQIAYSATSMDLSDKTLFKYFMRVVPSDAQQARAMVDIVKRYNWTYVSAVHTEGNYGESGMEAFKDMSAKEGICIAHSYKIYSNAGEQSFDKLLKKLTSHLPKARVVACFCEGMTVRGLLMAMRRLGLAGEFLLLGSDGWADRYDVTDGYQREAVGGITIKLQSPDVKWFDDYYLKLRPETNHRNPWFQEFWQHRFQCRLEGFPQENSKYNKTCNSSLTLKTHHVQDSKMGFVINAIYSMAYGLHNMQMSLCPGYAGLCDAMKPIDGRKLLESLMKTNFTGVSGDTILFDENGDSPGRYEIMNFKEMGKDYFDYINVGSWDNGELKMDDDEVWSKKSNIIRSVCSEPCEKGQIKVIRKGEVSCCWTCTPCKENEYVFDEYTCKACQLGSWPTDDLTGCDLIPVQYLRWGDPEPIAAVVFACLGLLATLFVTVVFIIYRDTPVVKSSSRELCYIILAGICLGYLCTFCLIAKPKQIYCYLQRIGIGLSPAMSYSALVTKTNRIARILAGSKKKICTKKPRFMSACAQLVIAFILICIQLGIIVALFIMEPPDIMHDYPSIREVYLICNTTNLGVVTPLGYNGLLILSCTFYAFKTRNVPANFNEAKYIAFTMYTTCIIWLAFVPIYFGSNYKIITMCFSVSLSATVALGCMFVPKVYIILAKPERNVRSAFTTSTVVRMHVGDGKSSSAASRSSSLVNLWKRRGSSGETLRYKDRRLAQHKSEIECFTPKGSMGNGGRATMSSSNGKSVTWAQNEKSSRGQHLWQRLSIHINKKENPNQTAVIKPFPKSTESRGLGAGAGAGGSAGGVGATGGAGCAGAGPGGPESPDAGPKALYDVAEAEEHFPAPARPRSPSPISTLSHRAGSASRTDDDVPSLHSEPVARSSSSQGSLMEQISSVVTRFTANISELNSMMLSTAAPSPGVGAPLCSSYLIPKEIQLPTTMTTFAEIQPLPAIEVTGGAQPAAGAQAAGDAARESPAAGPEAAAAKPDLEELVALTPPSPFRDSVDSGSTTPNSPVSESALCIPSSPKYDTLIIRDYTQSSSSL
PROCEDURE SUMMARY: In vitro cell-based FLIPR calcium assay for positive modulation of the activation of mGluR5 by glutamate (PAM EC50)
SETUP CONDITIONS: HEK293/GLAST cells expressing recombinant human mGluR5; FLIPR calcium signal; glutamate added at its EC20; read-out: mGluR5 PAM EC50

MOLECULE: CC1CCc2nc3cc(C#Cc4cccc(C#N)n4)ccc3c(=O)n2CC1 (stereo not drawn) [Example 6.47]
EXPERIMENTAL SYSTEM: human mGluR5 (Homo sapiens, UniProt P41594)
EC50: 30 to 100 nM
--
MOLECULE: COCCc1cnc2cc(C#Cc3ccc(F)cc3)ccn2c1=O [Example 13.11]
EXPERIMENTAL SYSTEM: human mGluR5 (Homo sapiens, UniProt P41594)
EC50: 10 to 30 nM
--
MOLECULE: O=c1c2ccc(C#Cc3cccnc3)cc2nc2n1CCC(O)CC2 (stereo not drawn) [Example 6.17]
EXPERIMENTAL SYSTEM: human mGluR5 (Homo sapiens, UniProt P41594)
EC50: 100 to 300 nM
--
MOLECULE: O=c1c2ccc(C#Cc3cccnc3F)cc2nc2n1CCC1(CC2)OCCO1 [Example 7.14]
EXPERIMENTAL SYSTEM: human mGluR5 (Homo sapiens, UniProt P41594)
EC50: 100 to 300 nM
--
MOLECULE: Cc1cnc(NC(=O)c2ccc3c(=O)n4c(nc3c2)CCOCC4)s1 [Example 23.2]
EXPERIMENTAL SYSTEM: human mGluR5 (Homo sapiens, UniProt P41594)
EC50: 100 to 300 nM
--
MOLECULE: O=C1CCc2nc3cc(C#Cc4cccc(F)c4)ccc3c(=O)n2CC1 [Example 6.14]
EXPERIMENTAL SYSTEM: human mGluR5 (Homo sapiens, UniProt P41594)
EC50: 10 to 30 nM
--
MOLECULE: O=CN1CCc2nc3cc(C#Cc4cccc(F)c4)ccc3c(=O)n2CC1 [Example 8.18]
EXPERIMENTAL SYSTEM: human mGluR5 (Homo sapiens, UniProt P41594)
EC50: 30 to 100 nM
--
MOLECULE: Cn1cnc2cc(C#Cc3nccs3)ccc2c1=O [Example 1.5]
EXPERIMENTAL SYSTEM: human mGluR5 (Homo sapiens, UniProt P41594)
EC50: 300 to 1000 nM
--
MOLECULE: COC(C)c1nc2cc(C#Cc3cccc(F)c3)ccc2c(=O)n1C (stereo not drawn) [Example 2.11]
EXPERIMENTAL SYSTEM: human mGluR5 (Homo sapiens, UniProt P41594)
EC50: < 10 nM

* * *

Each item that follows carries a reported EC50.
EXPERIMENTAL SYSTEM: human mGluR5 (Homo sapiens)
Construct: expressed in transfected cells; host or cells: HEK293 cells stably expressing rat GLAST (EAAT1), stably transfected with pcDNAzeo3.1 carrying synthetic human mGluR5 DNA; zeocin-selected single clones
PROCEDURE SUMMARY: In vitro cell-based FLIPR calcium assay for positive modulation of the activation of mGluR5 by glutamate (PAM EC50)
SETUP CONDITIONS: HEK293/GLAST cells expressing recombinant human mGluR5; FLIPR calcium signal; glutamate added at its EC20; read-out: mGluR5 PAM EC50

MOLECULE: O=c1c2ccc(C#CC3=CCCC3)cc2nc2n1CCC1(CC2)OCCO1 [Example 7.51]
EC50: 100 to 300 nM

MOLECULE: O=c1c2c(nc3cc(C#Cc4ccccn4)ccn13)CCCCCC2 [Example 17.2]
EC50: < 10 nM

MOLECULE: N#Cc1cccc(C#Cc2ccc3c(=O)n4c(nc3c2)CCC2(CC4)OCCO2)c1 [Example 7.38]
EC50: 30 to 100 nM

MOLECULE: O=c1c2c(nc3cc(C#Cc4ccncc4)ccn13)CCCCCC2 [Example 17.4]
EC50: < 10 nM

MOLECULE: O=c1c2ccc(C#Cc3cccc(F)c3)cc2nc2n1CCN(C1CCOC1)CC2 (centres unmarked) [Example 8.13]
EC50: 100 to 300 nM

* * *

EXPERIMENTAL SYSTEM: human mGluR5 (Homo sapiens)
Construct: expressed in transfected cells; host or cells: HEK293 cells stably expressing rat GLAST (EAAT1), stably transfected with pcDNAzeo3.1 carrying synthetic human mGluR5 DNA; zeocin-selected single clones
PROCEDURE SUMMARY: In vitro cell-based FLIPR calcium assay for positive modulation of the activation of mGluR5 by glutamate (PAM EC50)
SETUP CONDITIONS: HEK293/GLAST cells expressing recombinant human mGluR5; FLIPR calcium signal; glutamate added at its EC20; read-out: mGluR5 PAM EC50
Excerpt: The DNA sequences encoding the structural regions for rat mGluR5 [Abe T, Sugihara H, Nawa H, Shigemoto R, Mizuno N, Nakanishi S (1992) “Molecular characterization of a novel metabotropic glutamate receptor mGluR5 coupled to inositol phosphate/Ca^2+ signal transduction” Journal of Biological Chemistry vol. 267, no. […]
pEC50: −log10 of the molar value.
The entries below are paired with their reported pEC50.
RESULT TYPE: pEC50

MOLECULE: C=C1CCc2nc3cc(C#Cc4cccc(F)c4)ccc3c(=O)n2CC1 [Example 6.22]
RECORDED MEASUREMENT: > 8.00
//
MOLECULE: N#Cc1ccc(C#Cc2ccc3c(=O)n4c(nc3c2)CCC2(CC4)OCCO2)cc1 [Example 7.39]
RECORDED MEASUREMENT: 6.00 to 6.52
//
MOLECULE: Cc1ccnc(C#Cc2ccc3c(=O)n4c(nc3c2)CCC2(CC4)OCCO2)c1 [Example 7.48]
RECORDED MEASUREMENT: 7.00 to 7.52
//
MOLECULE: O=c1c2ccc(C#Cc3cccc(F)c3)cc2nc2n1CCC1(CCCO1)CC2 (stereo not drawn) [Example 6.26]
RECORDED MEASUREMENT: 7.52 to 8.00
//
MOLECULE: CN1CCc2nc3cc(C#Cc4ccc(F)cc4)ccc3c(=O)n2CC1 [Example 8.1]
RECORDED MEASUREMENT: 6.52 to 7.00
//
MOLECULE: CC1(O)CCc2nc3cc(C#Cc4ccccn4)ccc3c(=O)n2CC1 (stereo not drawn) [Example 6.49]
RECORDED MEASUREMENT: 6.52 to 7.00
//
MOLECULE: CCNC(=O)c1cnc2cc(C#Cc3cccc(F)c3)ccn2c1=O [Example 13.5]
RECORDED MEASUREMENT: 7.52 to 8.00
//
MOLECULE: CC1(C)CCn2c(nc3cc(/C=C/c4ccccc4F)ccc3c2=O)C1 [Example 20.6]
RECORDED MEASUREMENT: 7.00 to 7.52
//
MOLECULE: O=c1c2ccc(C#Cc3cccc(F)c3)cc2nc2n1CCN(Cc1ccccc1)CC2 [Example 8.9]
RECORDED MEASUREMENT: 7.52 to 8.00
//
MOLECULE: CC(C)CC1CCCCc2nc3cc(C#Cc4ccc(F)cc4)ccc3c(=O)n21 (stereo not drawn) [Example 6.32]
RECORDED MEASUREMENT: 6.52 to 7.00
//
MOLECULE: O=c1c2ccc(C#Cc3cccc(F)c3)cc2nc2n1CC1CCCCN1C2 (stereo not drawn) [Example 5.19]
RECORDED MEASUREMENT: 6.00 to 6.52
//
MOLECULE: O=c1c2ccc(C#Cc3cccc(F)c3)cc2nc2n1CC(CO)CC2 (stereo not drawn) [Example 4.31]
RECORDED MEASUREMENT: > 8.00
//
MOLECULE: O=C(Nc1ccc(F)cc1)c1ccn2c(=O)c3c(nc2c1)CCCCCC3 [Example 28.2]
RECORDED MEASUREMENT: 6.00 to 6.52
//
MOLECULE: O=c1c2ccc(C#Cc3ccccn3)cc2nc2n1CCCCC2 [Example 6.5]
RECORDED MEASUREMENT: > 8.00
//
MOLECULE: CC1Cn2c(nc3cc(C#Cc4ccccn4)ccc3c2=O)CN1C (stereo not drawn) [Example 5.14]
RECORDED MEASUREMENT: 7.00 to 7.52
//
MOLECULE: CN1CCCc2nc3cc(C#Cc4cccc(F)c4)ccc3c(=O)n2CC1 [Example 10.4]
RECORDED MEASUREMENT: 7.00 to 7.52
//
MOLECULE: CC1Cc2nc3cc(C#Cc4cccc(F)c4)ccc3c(=O)n2C1 (stereo not drawn) [Example 3.8]
RECORDED MEASUREMENT: > 8.00
//
MOLECULE: O=c1c2ccc(C#Cc3ccccn3)cc2nc2n1CC1CCCN1C2 (stereo not drawn) [Example 5.22]
RECORDED MEASUREMENT: 7.00 to 7.52
//
MOLECULE: CN1CCCn2c(nc3cc(C#Cc4cccc(F)c4)ccc3c2=O)CC1 [Example 10.3]
RECORDED MEASUREMENT: 7.52 to 8.00
//
MOLECULE: CCC(C)c1nc2cc(C#Cc3cccc(F)c3)ccc2c(=O)n1C (stereo not drawn) [Example 2.14]
RECORDED MEASUREMENT: 6.00 to 6.52
//
MOLECULE: CCCn1ccc2cc(C#Cc3ccc(F)cc3)ccc2c1=O [Example 18.2]
RECORDED MEASUREMENT: 6.00 to 6.52
//
MOLECULE: O=c1c2ncc(C#Cc3ccccn3)cc2nc2n1CC1CCCN1C2 (stereo not drawn) [Example 11.6]
RECORDED MEASUREMENT: 6.00 to 6.52
//
MOLECULE: O=c1c2ccc(C#Cc3cccc(F)c3)cc2nc2n1CC1(CC2)OCCO1 [Example 4.21]
RECORDED MEASUREMENT: 7.52 to 8.00
//
MOLECULE: CC1(C)CCc2c(nc3cc(C#Cc4ccccn4)ccn3c2=O)C1 [Example 15.3]
RECORDED MEASUREMENT: > 8.00
//
MOLECULE: CC1(C)CCCn2c(nc3cc(C#Cc4ccccn4)ccc3c2=O)C1 [Example 6.37]
RECORDED MEASUREMENT: > 8.00
//
MOLECULE: CCC1CCCn2c1nc1cc(C#Cc3cccc(F)c3)ccc1c2=O (stereo not drawn) [Example 4.8]
RECORDED MEASUREMENT: 6.52 to 7.00
//
MOLECULE: O=c1c2ccc(C#Cc3ccncc3)cc2nc2n1CCC1(CC2)OCCO1 [Example 7.12]
RECORDED MEASUREMENT: 7.52 to 8.00
//
MOLECULE: O=c1c2ccc(C#Cc3ccc(F)nc3)cc2nc2n1CCC1(CC2)OCCO1 [Example 7.15]
RECORDED MEASUREMENT: 7.00 to 7.52
//
MOLECULE: CCOCc1cnc2cc(C#Cc3cccc(F)c3)ccn2c1=O [Example 13.8]
RECORDED MEASUREMENT: 7.00 to 7.52
//
MOLECULE: O=c1c2ccc(C#Cc3cccc(F)c3)cc2nc2n1CCN(CC1CCCO1)CC2 (stereo not drawn) [Example 8.16]
RECORDED MEASUREMENT: 6.52 to 7.00
//
MOLECULE: CCOCCc1cnc2cc(C#Cc3cccc(F)c3)ccn2c1=O [Example 13.13]
RECORDED MEASUREMENT: 7.00 to 7.52
//
MOLECULE: CCCCN1CCn2c(nc3cc(C#Cc4cccc(F)c4)ccc3c2=O)C1 [Example 5.11]
RECORDED MEASUREMENT: 6.52 to 7.00
//
MOLECULE: O=c1c2c(nc3cc(C#Cc4ccc(F)cc4)ccn13)CCCCC2 [Example 16.1]
RECORDED MEASUREMENT: > 8.00
//
MOLECULE: O=c1c2ncc(C#Cc3ccccn3)cc2nc2n1C(CO)CC2 (stereo not drawn) [Example 11.3]
RECORDED MEASUREMENT: 6.00 to 6.52
//
MOLECULE: CC(c1nc2cc(C#Cc3ccccn3)ccc2c(=O)n1C)N(C)C1CCC1 (stereo not drawn) [Example 2.23]
RECORDED MEASUREMENT: 6.00 to 6.52
//
MOLECULE: COCC1CCc2nc3cc(C#Cc4ccccn4)ccc3c(=O)n2C1 (single isomer, unassigned) [4.34a/4.34b slower moving enantiomer (fraction 2)]
RECORDED MEASUREMENT: 7.00 to 7.52
